Please provide measured MIC for the entries that follow.
# Tested on: Escherichia coli
# Measurement Protocol: microbe, parasite or virus in culture
# Format: functional
# Test Parameters: TOP10
Reply numerically in µg/mL, unit not repeated.

State, for Escherichia coli, measured MIC of the compound listed here: "C[C@@H](O)[C@H]1C(=O)N2C(C(=O)O)=C(S[C@@H]3CN[C@H](C(=O)N(C)C)C3)[C@H](C)[C@H]12"
0.25

Param request: MIC | system Escherichia coli | item "CO[C@@]1(NC(=O)Cc2cccs2)C(=O)N2C(C(=O)O)=C(COC(N)=O)CS[C@@H]21"
256

Look up and report MIC, with Escherichia coli as system, for "CO/N=C(\C(=O)N[C@@H]1C(=O)N2C(C(=O)[O-])=C(C[n+]3cccc4c3CCC4)CS[C@H]12)c1csc(N)n1"
32

Name the value of MIC reported for "CCN1CCN(C(=O)N[C@@H](C(=O)N[C@@H]2C(=O)N3[C@@H]2SC(C)(C)[C@@H]3C(=O)O)c2ccccc2)C(=O)C1=O" when tested on Escherichia coli.
256

Recall the reported MIC of "C[C@@H](O)[C@H]1C(=O)N2C(C(=O)O)=C(S[C@@H]3CN[C@H](C(=O)Nc4cccc(C(=O)O)c4)C3)[C@H](C)[C@H]12" on Escherichia coli and write it down.
0.125

Enter recorded MIC with Escherichia coli for "CC(C)(O/N=C(\C(=O)N[C@@H]1C(=O)N2C(C(=O)[O-])=C(C[n+]3ccccc3)CS[C@H]12)c1csc(N)n1)C(=O)O" here.
512

Please tell me the measured MIC for "CO/N=C(\C(=O)N[C@@H]1C(=O)N2C(C(=O)O)=C(COC(C)=O)CS[C@H]12)c1csc(N)n1" ; system: Escherichia coli.
32
